Quick list: pKi per entry.
subject of test: Carbonic anhydrase 2 (Homo sapiens, UniProt P00918)
protocol text: Binding affinity to recombinant human carbonic anhydrase 2 after 15 mins by stopped-flow CO2 hydration assay
Please keep in mind that pKi is minus log10 of the molar concentration; only the number is needed.

>>> value_measured("NS(=O)(=O)c1ccc(NC(=O)CCCc2ccc(N(CCCl)CCCl)cc2)cc1")
8.05

Exam item: # pKi lookup, item `NS(=O)(=O)c1ccc(CCNC(=O)CCCc2ccc(N(CCCl)CCCl)cc2)cc1`
Marked response: 6.35

Exam item: Name the recorded pKi for `NS(=O)(=O)c1ccc(CCNC(=O)OCCCCc2ccc(N(CCCl)CCCl)cc2)cc1` .
Marked response: 6.30
